target: T1, synthetic biotin-8xGA (also: biotin, position not given here); assay: SPR (Biacore T200), biotin-8xGA captured on Biotin CAPture chip, Fab as analyte, 1:1 model
T1 construct: also called synthetic 8×GA; poly-(GA)8 peptide
T1 peptide: GAGAGAGAGAGAGAGA
Ends that are not written are not given here.
Measurement type: koff (s⁻¹)
Give the value in s⁻¹ but do not write s⁻¹ after it.

[ask] Find the measured koff of NI-308.5J10 variant G55S-Fab-6His / N75D light chain (Fab, V domains shown, Plasmids SDD181 and SDD177; also called HC G55S/LC N75D Fab; 5J10-LC N75D, HC G55S Fab) VH: SETLSLTYTVLGGSVSDYYWSCIRQPAGKGLEWIGRTYTNSKTTYTYNPSLESRLSLSIDTSMNQFSLKLTSVTAADTAVYYCARWGAVTGDYYYGMDVWGPGTLVTVSS VL: EIVLTQSPLSLSVTPGEPASISCRSPRSLLHTNGYTYLDWYLQRPGQSPQLLIFLASNRASGVPDRFSGSGSGTDFTLRISGVEADDVGVYYCMQGLQPSWTFGQGTKVEIKR and report it.
[reply] 0.0044

[ask] Find the measured koff of NI-308.5J10 variant N54S-Fab-6His / N75D light chain (Fab, V domains shown, Plasmids SDD179 and SDD177; also called HC N54S/LC N75D Fab; 5J10-LC N75D, HC N54S Fab) VH: SETLSLTYTVLGGSVSDYYWSCIRQPAGKGLEWIGRTYTSGKTTYTYNPSLESRLSLSIDTSMNQFSLKLTSVTAADTAVYYCARWGAVTGDYYYGMDVWGPGTLVTVSS VL: EIVLTQSPLSLSVTPGEPASISCRSPRSLLHTNGYTYLDWYLQRPGQSPQLLIFLASNRASGVPDRFSGSGSGTDFTLRISGVEADDVGVYYCMQGLQPSWTFGQGTKVEIKR and report it.
[reply] 0.006

[ask] Find the measured koff of NI-308.5J10 variant G55T-Fab-6His / N75D light chain (Fab, V domains shown, Plasmids SDD182 and SDD177; also called HC G55T/LC N75D Fab; 5J10-LC N75D, HC G55T Fab) VH: SETLSLTYTVLGGSVSDYYWSCIRQPAGKGLEWIGRTYTNTKTTYTYNPSLESRLSLSIDTSMNQFSLKLTSVTAADTAVYYCARWGAVTGDYYYGMDVWGPGTLVTVSS VL: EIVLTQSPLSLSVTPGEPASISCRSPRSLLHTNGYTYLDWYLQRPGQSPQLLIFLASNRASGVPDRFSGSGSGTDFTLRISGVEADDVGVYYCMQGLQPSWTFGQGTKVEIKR and report it.
[reply] 0.0044
